Reference for the values: patent US20230272056A1

Target: T1, human LAP-TGFB1 Fc fusion (human)
T1 construct: also called human LAP-TGFβ1-Fc; human LAP-TGFβ-Fc isoform 1
T1 sequence (chain, as listed by the source limits assumed): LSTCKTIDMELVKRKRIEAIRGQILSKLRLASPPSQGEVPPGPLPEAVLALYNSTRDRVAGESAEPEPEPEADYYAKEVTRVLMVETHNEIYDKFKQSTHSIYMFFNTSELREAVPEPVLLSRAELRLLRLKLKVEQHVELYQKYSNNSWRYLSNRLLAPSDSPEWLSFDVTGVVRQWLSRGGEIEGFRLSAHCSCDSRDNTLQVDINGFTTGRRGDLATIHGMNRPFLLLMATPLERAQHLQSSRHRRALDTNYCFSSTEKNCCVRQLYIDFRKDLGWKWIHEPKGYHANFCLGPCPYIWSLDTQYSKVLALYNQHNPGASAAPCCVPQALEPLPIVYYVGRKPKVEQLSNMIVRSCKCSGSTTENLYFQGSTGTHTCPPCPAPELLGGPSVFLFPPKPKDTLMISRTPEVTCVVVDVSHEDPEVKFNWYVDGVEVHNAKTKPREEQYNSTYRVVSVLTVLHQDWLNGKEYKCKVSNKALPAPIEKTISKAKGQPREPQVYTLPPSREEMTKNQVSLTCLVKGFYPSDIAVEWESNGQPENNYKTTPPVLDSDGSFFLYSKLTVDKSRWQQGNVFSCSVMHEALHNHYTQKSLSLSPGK
Test: SPR pH 6.0, antigen captured on Fab 54BLH
OUTCOME_MEASURE: kon (M⁻¹ s⁻¹)
The reply should be a number in M⁻¹ s⁻¹, with the unit left off.

66BLH (Fab, V domains shown, also called 18BLM Fab) VH: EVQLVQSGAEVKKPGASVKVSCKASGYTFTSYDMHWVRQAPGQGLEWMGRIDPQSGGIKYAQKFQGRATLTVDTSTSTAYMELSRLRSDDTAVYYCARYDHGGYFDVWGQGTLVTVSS VL: DIQMTQSPSSLSASVGDRVTITCRASQDIYNYLNWYQQKPGKAVKLLIYYTSRLETGVPSRFSGSGSGTDYTLTISSLQPEDFATYFCQQGDTLPWTFGQGTKLEIK | 1.96e+06
59BLH (Fab, V domains shown, also called 11BLM Fab) VH: EVQLVQSGAEVKKPGASVKVSCKASGYTFTSYDMHWVRQAPGQGLEWMGRIDPQSGGIRYAQKFQGRATLTVDTSTSTAYMELSRLRSDDTAVYYCARWDYGGYFDVWGQGTLVTVSS VL: DIQMTQSPSSLSASVGDRVTITCRASQDIYNYLNWYQQKPGKAVKLLIYYTSVLETGVPSRFSGSGSGTDYTLTISSLQPEDFATYFCQQGDTLPWTFGQGTKLEIK | 7.08e+06
11BLM (antibody, human IgG1, kappa, L234A L235A, V domains shown, IgG1 L234A L235A D265S/kappa; also called 74BLH; 47BMD) VH: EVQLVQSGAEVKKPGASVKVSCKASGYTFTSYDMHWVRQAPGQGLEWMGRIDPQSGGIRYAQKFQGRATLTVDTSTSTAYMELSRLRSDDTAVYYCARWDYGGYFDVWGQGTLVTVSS VL: DIQMTQSPSSLSASVGDRVTITCRASQDIYNYLNWYQQKPGKAVKLLIYYTSVLETGVPSRFSGSGSGTDYTLTISSLQPEDFATYFCQQGDTLPWTFGQGTKLEIKR | 6.75e+06

Give the reported value of kon for this record: 07BLM (antibody, human IgG1, kappa, L234A L235A, V domains shown, IgG1 L234A L235A D265S/kappa; also called 70BLH; 43BMD) VH: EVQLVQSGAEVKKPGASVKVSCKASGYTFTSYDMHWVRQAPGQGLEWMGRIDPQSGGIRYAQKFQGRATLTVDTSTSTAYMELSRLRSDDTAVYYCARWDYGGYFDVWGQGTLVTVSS VL: DIQMTQSPSSLSASVGDRVTITCRASQDIYSYLNWYQQKPGKAVKLLIYYTSNLETGVPSRFSGSGSGTDYTLTISSLQPEDFATYFCQQGDTLPWTFGQGTKLEIKR
8.47e+06

Output kon of 60BLH (Fab, V domains shown, also called 12BLM Fab) VH: EVQLVQSGAEVKKPGASVKVSCKASGYTFTSYDMHWVRQAPGQGLEWMGRIDPQSGGVKYAQKFQGRATLTVDTSTSTAYMELSRLRSDDTAVYYCARWDYGGYFDVWGQGTLVTVSS VL: DIQMTQSPSSLSASVGDRVTITCRASQDIYNYLNWYQQKPGKAVKLLIYYTSVLETGVPSRFSGSGSGTDYTLTISSLQPEDFATYFCQQGDELPWTFGQGTKLEIK
5.65e+06
